- METHOD_NOTES: chemical genetic growth profiling, strain panel (AID 1159580);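 further: tested at 20 µM; growth read once vehicle control cultures reached saturation at 30 °C; 1 = growth at the plate median or of vehicle wells; lower values mean less growth of the strain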
- CONDITION_SET: S. cerevisiae deletion strains, growth OD, locus YNL153C, strain GIM3, active compounds read low
Hit rate of the full screen: of about 5,500 compounds, about 2,000 (36%) were called active. Inconclusive results (about 18%) are left out. The list shows a part of the results.
Measured normalized growth values are reported for all entries that follow.
Keep the answer to the number alone.

A selection of reference data follows.
{"MOLECULE": "Cc1cccc2nc(-c3ccccc3)oc(=O)c12", "normalized growth": 0.975}
{"MOLECULE": "CCOP(=S)(OCC)Oc1ccc2c(C)c(Cl)c(=O)oc2c1", "normalized growth": 0.972}
{"MOLECULE": "C/C(=N/NC1=NCCN1)c1ccc(F)cc1", "normalized growth": 0.987}

Input: So what's the measured normalized growth for this one? CN(C(=O)Cc1ccc(Cl)c(Cl)c1)C(CN1CCCC1)c1cccc(OCC(=O)O)c1 (stereo unspecified)
Output: 1.01

Input: Could you do the same for CCCNC(C)C(=O)Nc1ccccc1C (stereo unspecified) , please?
Output: 0.963

Input: # repeat for CC(=O)O[C@H]1C[C@@H](OC(C)=O)C(C)(C)C2C[C@@H](OC(C)=O)[C@]3(C)C(CC[C@@]4(C)[C@H](c5ccoc5)C(=O)[C@H]5O[C@]543)[C@]21C (stereo partly specified)
Output: 1.02

Input: Input CC1(C)CCC(C(C)(C)O)CC1
Output: 1.01

Input: Would you mind doing COc1ccccc1NC(=O)N1CCCN(C(=O)c2cccs2)CC1 as well?
Output: 1.01

Input: Also need Oc1cc(O)cc(/C=C/c2ccccc2)c1 , thanks.
Output: 0.96

Input: // repeat for O=C(O)CCS(=O)(=O)/C=C/c1ccccc1 and report
Output: 1.01

Input: Another molecule to look at: COc1ccc(/C=C/c2cc(O)cc(O)c2)cc1
Output: 0.931
